Test system: UACC-257 melanoma
PROTOCOL DESCRIPTION: NCI-60 one-dose screen, 48 h (100 = growth as untreated, 0 = no growth, -100 = all killed)
RUN CONDITIONS: 10 µM unless noted
About 83,000 compounds went through this panel and 20% of them were active in at least one assay; those are over-represented in the sample as a whole.
Categorized via growth: lo (below 30%), mid (30% to below 80%), hi (80% or more)

See these solved cases before continuing.
Query string: Could you place N#Cc1c(-c2ccc(Cl)cc2)nc2n[nH]c(-c3ccc(Cl)cc3)c2c1-c1ccc(C(F)(F)F)cc1 in its proper category? Many thanks.
Result string: lo

Query string: Sort COc1ccc(NC(=O)Nc2ccc(OCc3ccc(F)cc3)cc2)cc1 into one of the categories.
Result string: hi

Next:
Query string: Which growth category applies to COc1cc2c(c(OC)c1OC)C(=O)CC(c1cccc(NC(=O)c3cccc([N+](=O)[O-])c3)c1)O2 (centres undefined) here?
Result string: mid

Query string: Which class holds O=C(Nc1ccc(C(F)(F)F)cc1)Nc1ccc2oc(=O)ccc2c1 ?
Result string: lo

Query string: Quick check: band for COC1=C[C@]23CCC(=O)N2CCc2cc4c(cc2[C@@H]3[C@@H]1OC(=O)[C@H](C)O)OCO4
Result string: lo

Query string: Which class does O=C(O)c1cccc(-c2ccc(/C=N/NC(=O)c3[nH]c4ccc(Br)cc4c3-c3ccccc3)s2)c1 fall in?
Result string: hi

Query string: Lab log: O=C(N/N=C/c1ccc(-c2ccc(O)cc2)o1)c1[nH]c2ccc(Br)cc2c1-c1ccccc1 — assign growth category
Result string: lo

* * *

System: PC-3 prostate
PROTOCOL DESCRIPTION: NCI-60 one-dose screen, 48 h (100 = growth as untreated, 0 = no growth, -100 = all killed)
RUN CONDITIONS: 10 µM unless noted
This is part of a sample that, as a whole, favours compounds with a hit. Of some 83,000 tested, about 20% had one in any assay.
Hi, to clarify the labels: Condition met covers growth from 40% upward, Condition not met covers anything below 40%.

Use these answered entries as a reference point.
Query string: // inclusive: growth at least 40%? input: O=C(Cn1c(/C=C/c2ccccc2)nc2ccccc2c1=O)Nc1ccccc1
Result string: Condition met

Query string: Does growth meet or surpass 40% for N#Cc1c(-c2ccc(Cl)cc2)nc2n[nH]c(-c3ccc(Cl)cc3)c2c1-c1ccc(C(F)(F)F)cc1 ?
Result string: Condition not met

Query string: Dear colleague, could you confirm whether O=C(Cn1c(/C=C/c2ccccc2)nc2ccccc2c1=O)Nc1ccc(Cl)cc1 has growth at or above 40%?
Result string: Condition met

Others:
Query string: Entry CN(C)CCn1c2ccccc2c2nc3ccc([N+](=O)[O-])cc3nc21 : is its growth no less than 40%?
Result string: Condition not met

Query string: API: above_or_equal(metric=growth, cutoff=40%) for item Cn1cc(-c2nc(N)nnc2-c2c[nH]c3ccc(Br)cc23)c2cc(Br)cnc21
Result string: Condition not met

Query string: Would you say CCCCCCCCc1ccc(C(=O)Nc2ccc(C)cc2C(=O)O)cc1C shows growth at minimum 40%?
Result string: Condition met

Query string: Confirm if growth reported for the compound CC1=C(C(=O)OCc2ccccc2)C(c2ccc(-n3cncn3)cc2)n2c(nc3ccccc32)N1 (centres undefined) is 40% or above.
Result string: Condition met

Query string: Identify whether the reported growth of the following compound is 40% or greater: Cc1cc(N=C2NC(=O)CS2)n[nH]1
Result string: Condition met

Query string: Exam item: decide whether the reported growth for CCOC(=O)C1=C(N)N(c2ccccc2)C2=C(C(=O)CC(C)(C)C2)C1c1cccc(Cl)c1Cl (centres undefined) is at least 40%.
Result string: Condition not met

Query string: Decide: is the reported value of growth for COc1ccc([C@H](C)Nc2nc(Cl)nc3ccccc23)cc1 equal to or greater than 40%?
Result string: Condition met

Query string: Dear colleague, could you confirm whether C#CCOc1cc(N(CC)CC)ccc1C(C(=O)NC(C)(C)C)N(C(=O)C1CCc2cc(F)ccc2O1)c1ccc(F)c(Cl)c1 (centres undefined) has growth at or above 40%?
Result string: Condition not met

Query string: Could you verify whether the entry CN1CCN(c2ccc3c(c2)nc(NNC(=O)c2ncccn2)c2cccn23)CC1 shows growth of no less than 40%?
Result string: Condition not met

Query string: Check if growth >= 40% (inclusive). Item: CC(=O)Nc1ccc(-c2cn(-c3cccc(C(=O)Nc4ccc(N5CCN(C)CC5)cc4)c3)nn2)cn1
Result string: Condition met

Query string: Determine whether measured growth meets or exceeds 40% for CN(C)CCCNC(=O)c1cc(NC(=O)c2cc(NC(=O)c3ccc(C#Cc4ccccc4)cc3)cn2C)cn1C
Result string: Condition not met

Query string: Has C=C1CCC2C3(C)COC(c4ccccc4)OC3CCC2(C)C1CC(NCc1ccccc1)C1=CCOC1=O (centres undefined) a recorded growth greater than or equal to 40%?
Result string: Condition not met

* * *

Test system: HS 578T breast
PROTOCOL DESCRIPTION: NCI-60 one-dose screen, 48 h (100 = growth as untreated, 0 = no growth, -100 = all killed)
RUN CONDITIONS: 10 µM unless noted
The panel holds about 83,000 compounds, 20% with a hit somewhere; the sample as a whole holds those more often. The source made the active and inactive calls. Rule for the calls: active = growth percent below 10; inactive = the rest.
PROPERTY: growth

Noted for CC1=C(C#N)C2=NNCC(c3ccccc3)=NN2C(c2ccccc2)=C1 : its growth reads 107% (inactive)

Notebook: Cc1cc2nc3c4ccccc4n(CCCN(C)C)c3nc2cc1C , growth read as -10.7% (active)

Entry CC(=O)c1cc(C(=O)c2ccccc2)n2c1ccc1ccccc12 — recorded growth = 94.1% (inactive)

growth measured on CN1CCN(Cc2ccc(C(=O)Nc3cccc(C#Cc4cccc5[nH]nc(N)c45)c3)cc2C(F)(F)F)CC1 = -17.5% (active)

Please examine the following record next.
The value of growth measured for the molecule O=C(N=Nc1c(O)[nH]c2ccc(Cl)cc12)c1ccc2nc(-c3ccccc3)[nH]c2c1 turned out to be 52.3% (inactive)

* * *

Test system: TK-10 renal
PROTOCOL DESCRIPTION: NCI-60 one-dose screen, 48 h (100 = growth as untreated, 0 = no growth, -100 = all killed)
RUN CONDITIONS: 10 µM unless noted
Compounds without any hit were thinned out: in the full panel of roughly 83,000, 20% have a hit. Activity calls are given as the source filed them. The calls were made as follows: active = growth percent below 10; inactive = the rest.
PROPERTY: growth

Examples with their reported growth follow.
So, COc1ccc2c(c1)c(/C=N/Nc1ccc3ccccc3n1)cn2C ? Its growth was 43.4% (inactive)

Just so you know, measured growth for C=C1CCC2C3(C)COC(c4ccc(F)cc4)OC3CCC2(C)C1CC(O)C1=CCOC1=O (centres undefined) came out at 96.6% (inactive)

Item: Cc1cc2nc3c([nH]c2cc1C)c1ccc(=O)cc1n3CCN(C)C | growth: 105% (inactive)

The reported value for O=C1NC(=O)/C(=C/c2ccccc2OCc2cc3ccccc3nc2Cl)S1 in terms of growth is 97.7% (inactive)

The compound listed as COc1ccc(/C=C/c2nc3ccccc3c(=O)n2CC(=O)Nc2ccc(Cl)cc2)cc1 has a reported growth of 116% (inactive)

// recorded growth for CC(=O)Nc1ccc(C(=O)NC(=S)Nc2ccc(S(N)(=O)=O)cc2)cc1 : 89.1% (inactive)

Sure, the documented growth for CC1(C)CC[C@]2(C(=O)O)CC[C@]3(C)C(=CCC4[C@@]5(C)C[C@@H](O)[C@@H]6OC(c7ccc(F)cc7)OC[C@@]6(C)C5CC[C@]43C)C2C1 (some centres undefined) is 26.9% (inactive)

According to the records, this compound Cc1ccc(C2=NN(c3nc(-c4cc5ccccc5oc4=O)cs3)C(c3ccc(C)cc3)C2)cc1 (centres undefined) displays growth of 163% (inactive)

Consider the additional compound presented here.
GET /value?item= NS(=O)(=O)c1ccc(-n2cc(-c3cccc(NC(=O)c4cc(Cl)cc(Cl)c4)c3)nn2)cc1 &field=growth returns 114% (inactive)

* * *

Listing of recorded growth by entry.
Tested on: T-47D breast
PROTOCOL DESCRIPTION: NCI-60 one-dose screen, 48 h (100 = growth as untreated, 0 = no growth, -100 = all killed)
RUN CONDITIONS: 10 µM unless noted
Experimental: Growth inhibition of the T-47D human tumor cell line is measured as a screen for anti-cancer activity. Cells are grown in 96 well plates and exposed to the test compound for 48 hours. Compounds are tested at a single concentration, which is 10^-5 M for most compounds. The reported endpoint is percent growth (GI% or GIPRCNT), where numbers from 0 - 100% represent growth inhibition, and numbers from -100% - 0 represent cell death. For example, a value of 40 represents 60% growth inhibition. […]
The panel holds about 83,000 compounds, 20% with a hit somewhere; the sample as a whole holds those more often.
Answer in %, number only, no unit symbol.

Take a look at these entries with their results.
Recorded result, CCN(CC)c1ccc(/C=N/Nc2nc(-c3ccc(C)cc3)cs2)c(O)c1 , growth: 68.7

Reported growth for O=C(COc1ccc(NC(=O)Nc2ccc(Cl)cc2)cc1)N/N=C/c1ccccc1 was -81.6

get_value(item= Cc1cc2c(cc1Cl)C(=O)/C(=C/c1ccc(F)cc1)O2 , readout=growth) returns 69.1

Now examine the next entry.
In plain terms, COc1cc2c3c(n(CCCN4CCC[C@@H]4CO)c(=O)c2cc1OC)-c1cc2c(cc1C3=O)OCO2 has a documented growth of 49.3
